# System: Rattus norvegicus
# assay protocol: Dose-normalized AUC was determined in rat after peroral administration (2 mg/kg)
# Type: ADME, organism-based
# assay setup: in vivo, po
Examples of compounds with documented log10 AUC follow.
Reminder: these figures are log10 of reported AUC, in µM·h before transformation.

1) CCCc1cc(Oc2ccc(F)cc2)ccc1OCCCOc1ccc(C2SC(=O)NC2=O)cc1 (stereo not drawn): 0.78
2) CCCc1cc(Oc2ccc(-c3ccccc3)cc2)ccc1OCCCOc1ccc(C2SC(=O)NC2=O)cc1 (stereo not drawn): -0.15
3) CCCc1cc(Oc2ccc(OC)cc2)ccc1OCCCOc1ccc(C2SC(=O)NC2=O)cc1 (stereo not drawn): 1.07
4) CCCc1cc(Oc2ccccc2)ccc1OCCCOc1ccc(C2SC(=O)NC2=O)cc1 (stereo not drawn): 1.14
5) CCCc1cc(Oc2ccc(Cl)cc2)ccc1OCCCOc1ccc(C2SC(=O)NC2=O)cc1 (stereo not drawn): 0.83

// Input: CCCc1cc(Oc2ccccc2)ccc1OCCCOc1ccc(C2SC(=O)NC2=O)cc1F (stereo not drawn) . Output its log10 AUC only.
0.87

// Input: CCCc1cc(Oc2ccc(S(C)(=O)=O)cc2)ccc1OCCCOc1ccc(C2SC(=O)NC2=O)cc1 (stereo not drawn) . Output its log10 AUC only.
1.07

// Input: CN(CCOc1ccc(CC2SC(=O)NC2=O)cc1)c1ccccn1 (stereo not drawn) . Output its log10 AUC only.
1.21

---

# assay protocol: Oral bioavailability in rat (dose 2 mg/kg)
# Assay type: ADME, organism-based
# assay setup: in vivo
readout name: bioavailability (%)
The reply should contain only the number, in %.

1. CCCc1cc(Oc2ccc(Cl)cc2)ccc1OCCCOc1ccc(C2SC(=O)NC2=O)cc1 (stereo not drawn): 58
2. CN(CCOc1ccc(CC2SC(=O)NC2=O)cc1)c1ccccn1 (stereo not drawn): 85

// Input: CCCc1cc(Oc2ccc(OC)cc2)ccc1OCCCOc1ccc(C2SC(=O)NC2=O)cc1 (stereo not drawn) . Output its bioavailability only.
39

// Input: CCCc1cc(Oc2ccc(S(C)(=O)=O)cc2)ccc1OCCCOc1ccc(C2SC(=O)NC2=O)cc1 (stereo not drawn) . Output its bioavailability only.
84

// Input: CCCc1cc(Oc2ccccc2)ccc1OCCCOc1ccc(C2SC(=O)NC2=O)cc1F (stereo not drawn) . Output its bioavailability only.
63

// Input: CCCc1cc(Oc2ccc(-c3ccccc3)cc2)ccc1OCCCOc1ccc(C2SC(=O)NC2=O)cc1 (stereo not drawn) . Output its bioavailability only.
6

// Input: CCCc1cc(Oc2ccc(F)cc2)ccc1OCCCOc1ccc(C2SC(=O)NC2=O)cc1 (stereo not drawn) . Output its bioavailability only.
63

// Input: CCCc1cc(Oc2ccccc2)ccc1OCCCOc1ccc(C2SC(=O)NC2=O)cc1 (stereo not drawn) . Output its bioavailability only.
89

---

# target entity: Peroxisome proliferator-activated receptor gamma (Homo sapiens, UniProt P37231)
# Sequence (P37231 whole entry): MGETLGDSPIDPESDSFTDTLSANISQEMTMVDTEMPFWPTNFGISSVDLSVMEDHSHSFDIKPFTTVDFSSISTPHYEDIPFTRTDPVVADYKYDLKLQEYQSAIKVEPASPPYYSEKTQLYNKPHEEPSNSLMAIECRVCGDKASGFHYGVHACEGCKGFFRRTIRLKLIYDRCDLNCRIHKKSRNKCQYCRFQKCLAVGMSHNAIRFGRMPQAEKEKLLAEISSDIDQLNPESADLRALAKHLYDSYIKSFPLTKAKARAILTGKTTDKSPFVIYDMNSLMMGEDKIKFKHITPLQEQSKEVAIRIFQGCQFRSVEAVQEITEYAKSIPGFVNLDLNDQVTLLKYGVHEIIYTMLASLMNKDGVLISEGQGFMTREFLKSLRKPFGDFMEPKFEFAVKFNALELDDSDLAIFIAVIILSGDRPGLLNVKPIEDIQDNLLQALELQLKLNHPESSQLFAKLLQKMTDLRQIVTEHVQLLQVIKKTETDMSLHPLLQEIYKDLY
Examples of molecules with documented log10(EC50) follow.
Reminder: these figures are log10 of reported EC50, in µM before transformation.

1) CCCc1cc(Oc2ccc(NS(=O)(=O)c3ccc(C)cc3)cc2)ccc1OCCCOc1ccc(C2SC(=O)NC2=O)cc1 (stereo not given): -0.30
2) CCCc1cc(Oc2ccc(S(C)(=O)=O)cc2)ccc1OCCCOc1ccc(C2SC(=O)NC2=O)cc1 (stereo not given): -0.92
3) CCCc1cc(Oc2ccccc2)ccc1OCCCOc1ccc(C2SC(=O)NC2=O)cc1CCC (stereo not given): -0.70
4) CCCc1cc(Oc2ccc(Cl)cc2)ccc1OCCCOc1ccc(C2SC(=O)NC2=O)cc1 (stereo not given): -1.10

// Input: CCCc1cc(Oc2ccc(-c3ccccc3)cc2)ccc1OCCCOc1ccc(C2SC(=O)NC2=O)cc1 (stereo not given) . Output its log10(EC50) only.
-1.70

// Input: CCCc1cc(Oc2ccccc2)ccc1OCCCOc1ccc(C2SC(=O)NC2=O)cc1Cl (stereo not given) . Output its log10(EC50) only.
-0.15

// Input: CCCc1cc(Oc2ccccc2)ccc1OCCCOc1ccc(C2SC(=O)NC2=O)cc1C (stereo not given) . Output its log10(EC50) only.
-1.00

---

# assay protocol: Plasma clearance was determined in rat after intravenous administration (0.5 mg/kg)
# Assay type: ADME, organism-based
# assay setup: read-out: Clp
Examples of molecules with documented clearance follow.
The reply should contain only the number, in mL/min/kg.

1) CCCc1cc(Oc2ccccc2)ccc1OCCCOc1ccc(C2SC(=O)NC2=O)cc1F (configuration not stated): 2.9
2) CCCc1cc(Oc2ccccc2)ccc1OCCCOc1ccc(C2SC(=O)NC2=O)cc1 (configuration not stated): 2.3
3) CCCc1cc(Oc2ccc(F)cc2)ccc1OCCCOc1ccc(C2SC(=O)NC2=O)cc1 (configuration not stated): 3.6
4) CN(CCOc1ccc(CC2SC(=O)NC2=O)cc1)c1ccccn1 (configuration not stated) [ROSIGLITAZONE]: 2.7

// Input: CCCc1cc(Oc2ccc(OC)cc2)ccc1OCCCOc1ccc(C2SC(=O)NC2=O)cc1 (configuration not stated) . Output its clearance only.
1.1

// Input: CCCc1cc(Oc2ccc(-c3ccccc3)cc2)ccc1OCCCOc1ccc(C2SC(=O)NC2=O)cc1 (configuration not stated) . Output its clearance only.
2.8

// Input: CCCc1cc(Oc2ccc(Cl)cc2)ccc1OCCCOc1ccc(C2SC(=O)NC2=O)cc1 (configuration not stated) . Output its clearance only.
2.9

---

# target entity: Peroxisome proliferator-activated receptor alpha (Homo sapiens, UniProt Q07869)
# Sequence (Q07869 whole entry, the tested form may be a part): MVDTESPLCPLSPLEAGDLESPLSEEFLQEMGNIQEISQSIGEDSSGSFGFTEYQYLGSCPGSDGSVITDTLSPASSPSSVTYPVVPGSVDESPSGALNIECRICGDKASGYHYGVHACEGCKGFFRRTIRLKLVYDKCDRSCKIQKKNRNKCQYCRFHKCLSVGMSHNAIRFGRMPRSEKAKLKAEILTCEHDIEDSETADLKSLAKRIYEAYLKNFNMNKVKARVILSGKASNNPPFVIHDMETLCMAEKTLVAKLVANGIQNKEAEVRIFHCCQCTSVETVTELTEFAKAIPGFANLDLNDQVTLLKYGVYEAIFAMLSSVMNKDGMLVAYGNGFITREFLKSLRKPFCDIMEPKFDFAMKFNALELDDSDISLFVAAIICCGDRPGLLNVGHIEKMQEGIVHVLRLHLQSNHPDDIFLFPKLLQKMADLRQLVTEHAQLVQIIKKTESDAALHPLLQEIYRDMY
# assay protocol: In vitro agonist activity tested for transactivation in human PPAR alpha-Gal4 chimeric COS-1 cells
readout name: EC50

Please review the following examples before continuing.
1. CCCc1cc(Oc2ccc(NS(=O)(=O)c3ccc(C)cc3)cc2)ccc1OCCCOc1ccc(C2SC(=O)NC2=O)cc1 (centres undefined): > 3 µM
2. CCCc1cc(Oc2ccccc2)ccc1OCCCOc1ccc(C2SC(=O)NC2=O)cc1 (centres undefined): > 3 µM
3. CCCc1cc(Oc2ccccc2)ccc1OCCCOc1ccc(C2SC(=O)NC2=O)cc1OC (centres undefined): > 3 µM
4. CCCc1cc(Oc2ccccc2)ccc1OCCCOc1ccc(C2SC(=O)NC2=O)cc1CCC (centres undefined): > 3 µM
5. CCCc1cc(Oc2ccccc2)ccc1OCCCCOc1ccc(C2SC(=O)NC2=O)cc1 (centres undefined): > 3 µM
6. CCCc1cc(Oc2ccccc2)ccc1OCCCOc1ccc(C2SC(=O)NC2=O)cc1Cl (centres undefined): > 3 µM

// Input: CCCc1cc(Oc2ccccc2)ccc1OCCCOc1ccc(C2SC(=O)NC2=O)cc1F (centres undefined) . Output its EC50 only.
> 3 µM

// Input: CCCc1cc(Oc2ccc(Cl)cc2)ccc1OCCCOc1ccc(C2SC(=O)NC2=O)cc1 (centres undefined) . Output its EC50 only.
3 µM

// Input: CCCc1cc(Oc2ccc(S(C)(=O)=O)cc2)ccc1OCCCOc1ccc(C2SC(=O)NC2=O)cc1 (centres undefined) . Output its EC50 only.
> 3 µM

// Input: CCCc1cc(Oc2ccccc2)ccc1OCCCOc1ccc(C2SC(=O)NC2=O)cc1C (centres undefined) . Output its EC50 only.
> 3 µM

// Input: CCCc1cc(Oc2ccc(-c3ccccc3)cc2)ccc1OCCCOc1ccc(C2SC(=O)NC2=O)cc1 (centres undefined) . Output its EC50 only.
> 3 µM

// Input: CCCc1cc(Oc2ccc(OC)cc2)ccc1OCCCOc1ccc(C2SC(=O)NC2=O)cc1 (centres undefined) . Output its EC50 only.
> 10 µM

// Input: CCCc1cc(Oc2ccc(F)cc2)ccc1OCCCOc1ccc(C2SC(=O)NC2=O)cc1 (centres undefined) . Output its EC50 only.
> 50 µM

// Input: CCCc1cc(Oc2ccc(CC(C)C)cc2)ccc1OCCCOc1ccc(C2SC(=O)NC2=O)cc1 (centres undefined) . Output its EC50 only.
> 3 µM

Each recorded value in this set is attributed to ChEMBL document CHEMBL1136397.
